Tested on: human brain endothelial cells
Assay Info: viability of human brain endothelial cells (LDH activity in culture medium)
Format: cell-based
Recorded Conditions: various doses, 24 hours
Numbered stars: 1 amine (or outer) side, 2 acyl side, 3 side chain; on linkers, the order of the positions; unused ones are H or OH. Square brackets hold non-standard residues; d marks the D form. Peptide text beside a SMILES is read from it. * marks the point of attachment. LeuΨ(S-CHOHCH2)Ala = CC(C)C[C@H](N[*:1])[C@@H](O)C[C@@H](C)C(=O)[*:2]; Cbz = O=C(OCc1ccccc1)*
Readout Kind: LDH activity in the culture medium, ANOVA main effect

Compound: CC(C)C[C@H](NC(=O)[C@H](CC(N)=O)NC(=O)[C@@H](NC(=O)[C@@H](N)CCC(=O)O)C(C)C)[C@@H](O)C[C@@H](C)C(=O)N[C@@H](C)C(=O)N[C@@H](CCC(=O)O)C(=O)N[C@@H](Cc1ccccc1)C(=O)O [OM99-2] (H-EVN[LeuΨ(S-CHOHCH2)Ala]AEF-OH)
Measured On: human brain endothelial cells
Reported Measurement: significant main effect
--
Compound: CC(C)C[C@@H](C=O)NC(=O)[C@H](CC(C)C)NC(=O)[C@@H](NC(=O)OCc1ccccc1)C(C)C [Z-VLL-CHO, N-benzyloxycarbony-val-leu-leucinal] (Cbz-Val-Leu-Leu-aldehyde)
Measured On: human brain endothelial cells
Reported Measurement: significant main effect
--
Compound: C[C@H](NC(=O)Cc1cc(F)cc(F)c1)C(=O)N[C@H](C(=O)OC(C)(C)C)c1ccccc1 [DAPT]
Measured On: human brain endothelial cells
Reported Measurement: significant main effect

These data points were gathered from patent US20040229816A1.
